Kindly supply the reported melting point values for the records listed here.
Numbers only, in °C.

Use the examples below as a reference point.
INSERT INTO assay_data (molecule, reportedmeasurement) VALUES
  ('Nc1nc(N)c(N)c(OCC2CCCCC2)n1', 154),
  ('COc1ccc(CNc2nc(N)nc(OCC3CCCCC3)c2C=O)cc1', 97);

Now turn to the next molecule.
May I ask what melting point has been recorded for Nc1nc(N)c(N=O)c(OCC2CC=CCC2)n1 (centres unmarked) ?
237
